# experimental_target: AGTR1 (Homo sapiens, UniProt P30556)
# Construct: host or cells: Pathunter CHO-K1 AGTR1 β-arrestin cell line (CHO-K1)
# Sequence (P30556 whole entry): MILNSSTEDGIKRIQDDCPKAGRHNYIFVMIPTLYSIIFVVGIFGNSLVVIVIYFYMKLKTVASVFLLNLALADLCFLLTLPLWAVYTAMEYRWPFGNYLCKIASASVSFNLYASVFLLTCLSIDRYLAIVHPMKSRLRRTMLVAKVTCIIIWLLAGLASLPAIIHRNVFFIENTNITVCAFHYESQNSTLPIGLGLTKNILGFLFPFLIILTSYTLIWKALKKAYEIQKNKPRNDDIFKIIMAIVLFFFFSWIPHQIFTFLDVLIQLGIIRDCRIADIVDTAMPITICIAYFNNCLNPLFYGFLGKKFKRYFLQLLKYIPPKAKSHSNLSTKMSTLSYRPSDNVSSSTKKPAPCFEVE
# method_notes: DiscoveRx IP1 accumulation assay (HTRF), agonist mode, Pathunter CHO-K1 AGTR1 β-arrestin cell line
# Format: cell-based
reported_endpoint: IP-1 Ymax (%)

[[record]]
compound = "CCc1nc2c(C)cc(C)nc2n1Cc1ccc(-c2cc(-c3cccc(C)c3)ccc2-c2nnn[nH]2)nc1 [Example 175]"
reported_value = 24.1

[[record]]
compound = "CCCCC1=NC2(CCOCC2)C(=O)N1Cc1ccc(-c2cc(-c3ccccc3)ccc2-c2nnn[nH]2)cc1 [Example 156]"
reported_value = 7.2

[[record]]
compound = "CCc1nc2c(C)cc(C)nc2n1Cc1ccc(-c2cc(-c3cc(C)cc(C)n3)ccc2C(=O)O)cc1 [Example 194]"
reported_value = 14.5

[[record]]
compound = "CCc1nc2c(C)cc(C)nc2n1Cc1ccc(-c2cc(C3CCCC3)ccc2-c2nn[nH]n2)cc1 [Example 80]"
reported_value = 14.6

[[record]]
compound = "CCCC1=NC2(CCOC2)C(=O)N1Cc1ccc(-c2cc(-c3ccccc3F)ccc2-c2nnn[nH]2)cc1 (single isomer, unassigned) [Example 161]"
reported_value = 14.2

[[record]]
compound = "CCc1nc2c(C)cc(C)nc2n1Cc1ccc(-c2cc(-c3ccc(C(=O)N(C)C)cc3)ccc2C(=O)O)cc1 [Example 185]"
reported_value = 13.8

[[record]]
compound = "CCc1nc2c(C)cc(C)nc2n1Cc1ccc(-c2cc(Oc3ccc(C)cn3)ccc2-c2nn[nH]n2)cc1 [Example 248]"
reported_value = 6.8

